target-or-test-system: T1, C-terminally Nanoluc-tagged human full length SPSB2 (human, UniProt Q99619 1-263)
T1 construct: source: HCT116, transfected (FuGENE HD), in intact or digitonin-permeabilized cells; not shown: NanoLuc, C-terminal, kept
T1 sequence (looked up): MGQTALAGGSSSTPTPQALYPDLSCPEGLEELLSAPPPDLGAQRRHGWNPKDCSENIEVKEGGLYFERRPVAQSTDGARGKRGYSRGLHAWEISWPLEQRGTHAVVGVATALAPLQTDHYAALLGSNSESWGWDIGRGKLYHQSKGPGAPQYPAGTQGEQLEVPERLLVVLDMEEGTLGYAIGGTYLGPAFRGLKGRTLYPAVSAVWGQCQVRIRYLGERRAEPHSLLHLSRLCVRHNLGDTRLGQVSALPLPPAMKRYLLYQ
run-description: FRET or BRET; NanoBRET tracer titration, apparent KD; 39 pM - 2.5 μM tracer titrated to intact HCT116 cells transfected with SPSB2-NanoLuc; 2 h at 37 °C
test-context: one partner purified
Bridge positions count the residues as written; N and C are the ends. Primed or numbered codes have the meaning given here. Ends that are not written are not given here. PEG4″ = not defined here
reported-metric: Kd (nM)

INSERT INTO assay_data (binder, reported_metric, assay_value) VALUES
  ('{BODIPY 576/589-PEG4″}-CYGRKKRRQRRRCGSGVDINNN (disulfide 1-13, also called fluorophore-tagged cyclic TAT tracer; source: synthetic peptide (custom synthesized by Synpel Chemical, GeneCust and GenScript Biotech)) [Cyclic TAT tracer]', 'Kd', 86);
